species: Rattus norvegicus; experiment: DrugMatrix - Regimen: Daily Repeat; assay type: toxicity, organism-based, Sprague-Dawley; parameters: regimen Daily Repeat, gender Male, age 6-8 weeks; settings: in vivo, iv, 0 mg/kg, 72 h, tissue Plasma, dose level Control, time 3 day, vehicle 100 % SALINE
Overview of reported TOTAL PROTEIN across a group of compounds:
Quick note: give the figure in G/DL, leave out the unit.

smilesStr	TOTAL PROTEIN (G/DL)
CO[C@@]12[C@H](COC(N)=O)C3=C(C(=O)C(C)=C(N)C3=O)N1C[C@@H]1N[C@@H]12	6.2
CC(=O)[C@]1(O)Cc2c(O)c3c(c(O)c2[C@@H](O[C@H]2C[C@H](N)[C@H](O)[C@H](C)O2)C1)C(=O)c1ccccc1C3=O	5.57
Cc1c(N)nc([C@H](CC(N)=O)NC[C@H](N)C(N)=O)nc1C(=O)N[C@H](C(=O)N[C@H](C)[C@@H](O)[C@H](C)C(=O)N[C@H](C(=O)NCCc1nc(-c2nc(C(=O)NCCC[S+](C)C)cs2)cs1)[C@@H](C)O)[C@@H](O[C@@H]1O[C@@H](CO)[C@@H](O)[C@H](O)[C@@H]1O[C@H]1O[C@H](CO)[C@@H](O)[C@H](OC(N)=O)[C@@H]1O)c1c[nH]cn1.[Br-]	5.87

We next turn to a different compound, shown below.
`COC(=O)C[C@](O)(CCC(C)(C)O)C(=O)O[C@@H]1C(OC)=C[C@]23CCCN2CCc2cc4c(cc2[C@H]13)OCO4` yielded TOTAL PROTEIN of 5.87

* * *

organism: Rattus norvegicus; experiment: DrugMatrix - Regimen: Daily Repeat; format: toxicity, organism-based, Sprague-Dawley; design: regimen Daily Repeat, gender Male, age 6-8 weeks; settings: in vivo, po, 1500 mg/kg, 120 h, tissue Blood, route oral GAVAGE, dose level High, time 5 day, vehicle .5 % CMC
Overview of recorded PLATELET COUNT for various compounds
Record the value in x10E3/uL, omitting the unit from your answer.

Example compounds with recorded PLATELET COUNT:
compound	recordedNumber
Cc1ccc(S(=O)(=O)NC(=O)NN2CCCCCC2)cc1 [TOLAZAMIDE]	1206.33
COc1cc(/C=C/C(=O)O)ccc1O [FERULATE]	1095
O=C(O)CCc1nc(-c2ccccc2)c(-c2ccccc2)o1	1504
CC[C@H]1OC(=O)[C@H](C)[C@@H](O[C@H]2C[C@@](C)(OC)[C@@H](O)[C@H](C)O2)[C@H](C)[C@@H](O[C@@H]2O[C@H](C)C[C@H](N(C)C)[C@H]2O)[C@](C)(O)C[C@@H](C)C(=O)[C@H](C)[C@@H](O)[C@]1(C)O	1382.33

Reported PLATELET COUNT ( COc1ccc(Cl)cc1C(=O)NCCc1ccc(S(=O)(=O)NC(=O)NC2CCCCC2)cc1 [GLYBURIDE] ) = 1089.67

* * *

species: Rattus norvegicus; test: DrugMatrix - Regimen: Daily Repeat; type: toxicity, organism-based, Sprague-Dawley; design: regimen Daily Repeat, gender Male, age 6-8 weeks; conditions: in vivo, po, 0 mg/kg, 72 h, tissue Plasma, route oral GAVAGE, dose level Control, time 3 day, vehicle .5 % CMC
parameterMeasured: SODIUM (MEQ/L)
Note: unit MEQ/L is implicit; provide only the numeric part.

SODIUM in this record for CC(C)NCC(O)COc1ccc(CC(N)=O)cc1 (stereo unspecified) : 152.83

Input CN(C)CCOC(c1ccccc1)c1ccccc1.Cn1c(=O)c2[nH]c(Cl)nc2n(C)c1=O [DIMENHYDRINATE] . Output SODIUM: 142.85

Short answer for `CCN1C[C@]2(COC)[C@H](O)C[C@H](OC)[C@@]34[C@@H]5C[C@@]6(O)[C@H](OC(=O)c7ccccc7)[C@@H]5[C@@](OC(C)=O)([C@@H]([C@H](OC)[C@H]23)[C@@H]14)[C@@H](O)[C@@H]6OC` : SODIUM was 140.33

Memo: `O=C(O)CCc1nc(-c2ccccc2)c(-c2ccccc2)o1` , reported SODIUM: 142.22

Record summary for `CCN1CCN(c2cc3c(cc2F)c(=O)c(C(=O)O)cn3C2CC2)CC1` : reported SODIUM = 152.33

Record CCN1CCCC1CNC(=O)c1cc(S(N)(=O)=O)ccc1OC (stereo unspecified) [SULPIRIDE] , field SODIUM: 142.22

According to the records, this molecule CCN(CC)CCNC(=O)c1cc(Cl)c(N)cc1OC [METOCLOPRAMIDE] displays SODIUM of 152.33

Per the records, this molecule ( `CC(C)(C#N)c1cc(Cn2cncn2)cc(C(C)(C)C#N)c1` ) has SODIUM equal to 141.47

GET /value?item= CN(C)CCC=C1c2ccccc2COc2ccccc21 [DOXEPIN] &field=SODIUM returns 152.83

Reported SODIUM ( COc1cc(/C=C/C(=O)O)ccc1O [FERULATE] ) = 143.72

SODIUM in this record for COc1cc(NC(C)CCCN)c2ncccc2c1 (stereo unspecified) : 149.67

Noted for `Nc1ccc(C(=O)O)c(O)c1` : its SODIUM reads 143.5
